These measurements were taken from patent US9232799B2.

Test system: Uromyces appendiculatus
Assay: In vivo preventive test on Uromyces appendiculatus (beans)
Conditions: 100 ppm of active ingredient, evaluated 10 days after inoculation
measured-attribute: Efficacy
Answer with the number, then the unit.

**Q:** Look up and report measured Efficacy (Uromyces appendiculatus) for the following molecule: Cn1nc(C(F)F)c(C(=O)N(C[Si](C)(C)c2ccccc2Cl)C2CC2)c1F
**A:** 100%

**Q:** Look up and report measured Efficacy (Uromyces appendiculatus) for the following molecule: Cn1nc(C(F)F)c(C(=O)NCCc2ncc(C(F)(F)F)cc2Cl)c1F
**A:** 96%

**Q:** Look up and report measured Efficacy (Uromyces appendiculatus) for the following molecule: Cn1nc(C(F)F)c(C(=O)NCCc2ccc(Cl)cc2Cl)c1Cl
**A:** 98%

**Q:** Look up and report measured Efficacy (Uromyces appendiculatus) for the following molecule: CC(Cc1c(Cl)cccc1Cl)N(C(=O)c1c(C(F)F)nn(C)c1F)C1CC1 (stereo not drawn)
**A:** 98%

**Q:** Look up and report measured Efficacy (Uromyces appendiculatus) for the following molecule: COC(c1cc(Cl)cc(Cl)c1)C(C)NC(=O)c1c(C(F)F)nn(C)c1Cl (mixture of isomers)
**A:** 100%

**Q:** Look up and report measured Efficacy (Uromyces appendiculatus) for the following molecule: CC(Cc1ccc(Cl)cc1)N(C(=O)c1c(C(F)F)nn(C)c1F)C1CC1 (stereo not drawn)
**A:** 96%

**Q:** Look up and report measured Efficacy (Uromyces appendiculatus) for the following molecule: Cn1nc(C(F)F)c(C(=O)N(C2CC2)C2CCCC2c2ccc(Cl)cc2Cl)c1F (stereo not drawn)
**A:** 100%

**Q:** Look up and report measured Efficacy (Uromyces appendiculatus) for the following molecule: CC(Cc1c(F)cccc1Cl)N(C(=O)c1c(C(F)F)nn(C)c1F)C1CC1 (stereo not drawn)
**A:** 100%

**Q:** Look up and report measured Efficacy (Uromyces appendiculatus) for the following molecule: Cn1nc(C(F)F)c(C(=O)N(C[Si](C)(C)c2cc(Cl)cc(Cl)c2)C2CC2)c1F
**A:** 100%

---

Assign % Inhibition of Aflatoxin at 50 μM to each entry below.
Tested on: aflatoxines production
Test: microbe, parasite or virus in culture
Assay type: cell-based, Aspergillus parasiticus
Settings: 50 μM
Could you give me the number in %? Just the number is fine.

**Q:** Look up and report measured % Inhibition of Aflatoxin at 50 μM (aflatoxines production) for the following compound: CCC(CNC(=O)c1c(C(F)F)nn(C)c1Cl)c1ncc(C(F)(F)F)cc1Cl (stereo not shown) [Example 193]
**A:** 100

**Q:** Look up and report measured % Inhibition of Aflatoxin at 50 μM (aflatoxines production) for the following compound: COC(c1cc(Cl)cc(Cl)c1)C(C)NC(=O)c1c(C(F)F)nn(C)c1Cl (mixture of isomers) [Example 108]
**A:** 100

**Q:** Look up and report measured % Inhibition of Aflatoxin at 50 μM (aflatoxines production) for the following compound: COC(c1cc(Cl)cc(Cl)c1)C(C)NC(=O)c1c(C(F)F)nn(C)c1F (mixture of isomers) [Example 109]
**A:** 100

**Q:** Look up and report measured % Inhibition of Aflatoxin at 50 μM (aflatoxines production) for the following compound: Cn1nc(C(F)F)c(C(=O)N(C2CC2)C2CCCC2c2ccc(Cl)cc2Cl)c1F (stereo not shown) [Example 211]
**A:** 100

**Q:** Look up and report measured % Inhibition of Aflatoxin at 50 μM (aflatoxines production) for the following compound: Cn1nc(C(F)F)c(C(=O)NC[Si](C)(C)c2ccccc2)c1F [Example 228]
**A:** 100

**Q:** Look up and report measured % Inhibition of Aflatoxin at 50 μM (aflatoxines production) for the following compound: Cc1cccnc1CC(NC(=O)c1c(C(F)F)nn(C)c1F)C(F)(F)F (stereo not shown) [Example 185]
**A:** 100

**Q:** Look up and report measured % Inhibition of Aflatoxin at 50 μM (aflatoxines production) for the following compound: Cn1nc(C(F)F)c(C(=O)NC[Si](C)(C)c2cc(Cl)cc(Cl)c2)c1Cl [Example 243]
**A:** 99

**Q:** Look up and report measured % Inhibition of Aflatoxin at 50 μM (aflatoxines production) for the following compound: COC(c1ccc(Cl)cc1Cl)C1(NC(=O)c2c(C(F)F)nn(C)c2F)CC1 (stereo not shown) [Example 79]
**A:** 100

**Q:** Look up and report measured % Inhibition of Aflatoxin at 50 μM (aflatoxines production) for the following compound: Cn1nc(C(F)F)c(C(=O)NCCc2cc(Cl)cc(Cl)c2)c1Cl [Example 105]
**A:** 100

**Q:** Look up and report measured % Inhibition of Aflatoxin at 50 μM (aflatoxines production) for the following compound: Cn1nc(C(F)F)c(C(=O)N(CC(F)(F)c2ccc(Cl)cc2Cl)C2CC2)c1F [Example 86]
**A:** 100

**Q:** Look up and report measured % Inhibition of Aflatoxin at 50 μM (aflatoxines production) for the following compound: Cn1nc(C(F)F)c(C(=O)N(C[Si](C)(C)c2ccc(Cl)cc2Cl)C2CC2)c1F [Example 238]
**A:** 100

**Q:** Look up and report measured % Inhibition of Aflatoxin at 50 μM (aflatoxines production) for the following compound: COc1ccc(CCN(C)C(=O)c2c(C(F)F)nn(C)c2F)cc1OC [Example 129]
**A:** 90

**Q:** Look up and report measured % Inhibition of Aflatoxin at 50 μM (aflatoxines production) for the following compound: CC(c1ccccc1Cl)C(C)N(C(=O)c1c(C(F)F)nn(C)c1F)C1CC1 (stereo not shown) [Example 41]
**A:** 100

**Q:** Look up and report measured % Inhibition of Aflatoxin at 50 μM (aflatoxines production) for the following compound: Cn1nc(C(F)F)c(C(=O)NC(C)(C)C(=O)c2ncc(C(F)(F)F)cc2Cl)c1Cl [Example 195]
**A:** 100

**Q:** Look up and report measured % Inhibition of Aflatoxin at 50 μM (aflatoxines production) for the following compound: CC(Cc1ccc(Cl)cc1)N(C(=O)c1c(C(F)F)nn(C)c1F)C1CC1 (stereo not shown) [Example 55]
**A:** 100

**Q:** Look up and report measured % Inhibition of Aflatoxin at 50 μM (aflatoxines production) for the following compound: CC(CNC(=O)c1c(C(F)F)nn(C)c1Cl)c1ccc(C(F)(F)F)cc1 (stereo not shown) [Example 128]
**A:** 100

**Q:** Look up and report measured % Inhibition of Aflatoxin at 50 μM (aflatoxines production) for the following compound: Cn1nc(C(F)F)c(C(=O)NC[Si](C)(C)c2cccc(Cl)c2)c1Cl [Example 236]
**A:** 99

**Q:** Look up and report measured % Inhibition of Aflatoxin at 50 μM (aflatoxines production) for the following compound: Cn1nc(C(F)F)c(C(=O)NCCc2ncc(C(F)(F)F)cc2Cl)c1Cl [Example 191]
**A:** 100

**Q:** Look up and report measured % Inhibition of Aflatoxin at 50 μM (aflatoxines production) for the following compound: CCN(CCc1ccc(Cl)cc1)C(=O)c1c(C(F)F)nn(C)c1F [Example 56]
**A:** 100

**Q:** Look up and report measured % Inhibition of Aflatoxin at 50 μM (aflatoxines production) for the following compound: CN(CCc1ccccc1C(F)(F)F)C(=O)c1c(C(F)F)nn(C)c1Cl [Example 124]
**A:** 100

**Q:** Look up and report measured % Inhibition of Aflatoxin at 50 μM (aflatoxines production) for the following compound: Cn1nc(C(F)F)c(C(=O)N(CC(F)(F)c2ccccc2Cl)C2CC2)c1F [Example 44]
**A:** 100

**Q:** Look up and report measured % Inhibition of Aflatoxin at 50 μM (aflatoxines production) for the following compound: COC(c1ccc(Cl)cc1Cl)C1(NC(=O)c2c(C(F)F)nn(C)c2Cl)CC1 (stereo not shown) [Example 78]
**A:** 100

**Q:** Look up and report measured % Inhibition of Aflatoxin at 50 μM (aflatoxines production) for the following compound: CC(CNC(=O)c1c(C(F)F)nn(C)c1F)c1ccc(Cl)cc1Cl (stereo not shown) [Example 84]
**A:** 100

**Q:** Look up and report measured % Inhibition of Aflatoxin at 50 μM (aflatoxines production) for the following compound: CC(Cc1ccccc1Cl)NC(=S)c1c(C(F)F)nn(C)c1F (stereo not shown) [Example 37]
**A:** 94

**Q:** Look up and report measured % Inhibition of Aflatoxin at 50 μM (aflatoxines production) for the following compound: Cc1ccsc1CCNC(=O)c1c(C(F)F)nn(C)c1F [Example 164]
**A:** 100

---

Assay: logP by HPLC on reversed-phase column (C 18), EEC Directive 79/831 Annex V.A8
Type: physicochemical
Threshold 4: logP strictly smaller gives True, otherwise False.

**Q:** Here's an entry: Cn1nc(C(F)F)c(C(=O)NC[Si](C)(C)c2ccccc2Cl)c1Cl . Is its logP below 4?
**A:** True

**Q:** Here's an entry: Cn1nc(C(F)F)c(C(=O)NC(C)(C)Cc2cccc(Oc3ccccc3)c2)c1Cl . Is its logP below 4?
**A:** False

**Q:** Here's an entry: Cn1nc(C(F)F)c(C(=O)N(C[Si](C)(C)c2ccc3ccccc3c2)C2CC2)c1F . Is its logP below 4?
**A:** False

**Q:** Here's an entry: COc1ccc(CCN(C)C(=O)c2c(C(F)F)nn(C)c2Cl)cc1OC . Is its logP below 4?
**A:** True

**Q:** Here's an entry: CC(Cc1cc(Cl)ccc1Cl)NC(=O)c1c(C(F)F)nn(C)c1Cl (stereo not drawn) . Is its logP below 4?
**A:** True

**Q:** Here's an entry: COC(CNC(=O)c1c(C(F)F)nn(C)c1Cl)c1cc(Cl)cc(Cl)c1 (stereo not drawn) . Is its logP below 4?
**A:** True

**Q:** Here's an entry: Cn1nc(C(F)F)c(C(=O)N(C[Si](C)(C)c2cccc(Cl)c2)C2CC2)c1F . Is its logP below 4?
**A:** False

**Q:** Here's an entry: CC(Cc1ccccc1Cl)NC(=O)c1c(C(F)F)nn(C)c1F (stereo not drawn) . Is its logP below 4?
**A:** True

**Q:** Here's an entry: CCC(CNC(=O)c1c(C(F)F)nn(C)c1Cl)c1ncc(C(F)(F)F)cc1Cl (stereo not drawn) . Is its logP below 4?
**A:** True

**Q:** Here's an entry: CN(CC(=O)c1ccc(Cl)cc1)C(=O)c1c(C(F)F)nn(C)c1F . Is its logP below 4?
**A:** True

**Q:** Here's an entry: COc1ccc(CCN(C(=O)c2c(C(F)F)nn(C)c2Cl)C2CCCCC2)cc1OC . Is its logP below 4?
**A:** True

**Q:** Here's an entry: CC(CNC(=O)c1c(C(F)F)nn(C)c1F)c1cc(Cl)ccc1Cl (stereo not drawn) . Is its logP below 4?
**A:** True

**Q:** Here's an entry: CC(CNC(=O)c1c(C(F)F)nn(C)c1Cl)c1cccc(C(F)(F)F)c1 (stereo not drawn) . Is its logP below 4?
**A:** True

**Q:** Here's an entry: CC(Cc1cccc(Oc2ccccc2)c1)NC(=O)c1c(C(F)F)nn(C)c1F (stereo not drawn) . Is its logP below 4?
**A:** True

**Q:** Here's an entry: Cn1nc(C(F)F)c(C(=O)NCC(C)(C)c2cccc(Oc3ccccc3)c2)c1Cl . Is its logP below 4?
**A:** False

**Q:** Here's an entry: Cn1nc(C(F)F)c(C(=O)NC2CCCCC2c2ccccc2)c1F (stereo not drawn) [Example 213] . Is its logP below 4?
**A:** True

**Q:** Here's an entry: Cn1nc(C(F)F)c(C(=O)NCCc2ccsc2Br)c1Cl . Is its logP below 4?
**A:** True

**Q:** Here's an entry: CC(C)C(CNC(=O)c1c(C(F)F)nn(C)c1F)c1ccc(Cl)cc1 (stereo not drawn) . Is its logP below 4?
**A:** True

**Q:** Here's an entry: CC(Cc1cccc(Oc2ccccc2)c1)NC(=O)c1c(C(F)F)nn(C)c1Cl (stereo not drawn) . Is its logP below 4?
**A:** True

**Q:** Here's an entry: Cn1nc(C(F)F)c(C(=O)N(CCc2ccccc2)CC(F)(F)F)c1F . Is its logP below 4?
**A:** True

**Q:** Here's an entry: Cc1ccsc1CCNC(=O)c1c(C(F)F)nn(C)c1Cl . Is its logP below 4?
**A:** True
